Target: Lipopolysaccharide (LPS)
Experiment: Displacement of dansyl-PMB from LPS by isothermal titration calorimetry
Where a SMILES comes first, the peptide text is derived from it. Bridges are numbered along the chain shown (N, C = ends). [ ]: non-standard residue; d: D form. The star is where a group is joined. Octanoyl = CCCCCCCC(=O)*; Dab = NCC[C@H](N)C(=O)O
readout-kind: IC50 (µM)
Numeric only. Scale: µM

{"columns": ["compound", "measured-on", "IC50 (µM)"],
 "data": [
  ["CCCCCCCC(=O)N[C@@H](CCN)C(=O)N[C@H](C(=O)N[C@@H](CCN)C(=O)N[C@H]1CCNC(=O)[C@H]([C@@H](C)O)NC(=O)[C@H](CCN)NC(=O)[C@H](CCNC(C)=O)NC(=O)[C@H](CC(C)C)NC(=O)[C@@H](Cc2ccccc2)NC(=O)[C@H](CCN)NC1=O)[C@@H](C)O", "Lipopolysaccharide (LPS)", 26],
  ["CCCCCCCC(=O)N[C@@H](CCN)C(=O)N[C@H](C(=O)N[C@@H](CCN)C(=O)N[C@H]1CCNC(=O)[C@H]([C@@H](C)O)NC(=O)[C@H](C)NC(=O)[C@H](CCN)NC(=O)[C@H](CC(C)C)NC(=O)[C@@H](Cc2ccccc2)NC(=O)[C@H](CCN)NC1=O)[C@@H](C)O (Octanoyl-[Dab]T[Dab][Dab][Dab][dF]L[Dab]AT; lactam 4-C)", "Lipopolysaccharide (LPS)", 19]
]}

Now for the compound whose IC50 we want.
// query Fill in the blank: the reported IC50 of CCCCCCCC(=O)N[C@H]1CCNC(=O)[C@H]([C@@H](C)O)NC(=O)[C@H](CCN)NC(=O)[C@H](CCN)NC(=O)[C@H](CC(C)C)NC(=O)[C@@H](Cc2ccccc2)NC(=O)[C@H](CCN)NC1=O is ____.
// result 30

----------
Target: Lipopolysaccharide (LPS)
Assay: Displacement of dansyl-PMB from LPS by isothermal titration calorimetry
Where a SMILES comes first, the peptide text is derived from it. Bridges are numbered along the chain shown (N, C = ends). [ ]: non-standard residue; d: D form. The star is where a group is joined. Octanoyl = CCCCCCCC(=O)*; Dab = NCC[C@H](N)C(=O)O
readout-kind: IC50 (µM)
Numeric only. Scale: µM

{"columns": ["compound", "readout-number"],
 "data": [
  ["CCCCCCCC(=O)N[C@@H](CCN)C(=O)N[C@H](C(=O)N[C@@H](CCN)C(=O)N[C@H]1CCNC(=O)[C@H]([C@@H](C)O)NC(=O)[C@H](CCN)NC(=O)[C@H](CCN)NC(=O)CNC(=O)CNC(=O)[C@H](CCN)NC1=O)[C@@H](C)O (Octanoyl-[Dab]T[Dab][Dab][Dab]GG[Dab][Dab]T; lactam 4-C)", 20]
]}

Now for the compound whose IC50 we want.
// query Fill in the blank: the reported IC50 of CC(C)C[C@@H]1NC(=O)[C@@H](Cc2ccccc2)NC(=O)[C@H](CCN)NC(=O)[C@@H](NC(=O)[C@@H](N)CCN)CCNC(=O)[C@H]([C@@H](C)O)NC(=O)[C@H](CCN)NC(=O)[C@H](CCN)NC1=O [POLYMYXIN B OCTAPEPTIDE] (H-[Dab][Dab][Dab][dF]L[Dab][Dab]T; lactam 2-C) is ____.
// result 21

Where these numbers come from: ChEMBL document CHEMBL1156251
